Biological target: glutathione-S-transferase (GST) tagged LXRbeta LBD (ligand binding domain) (Homo sapiens)
Construct: purchased Invitrogen pv4658
Sequence (P55055 222-460 limits assumed): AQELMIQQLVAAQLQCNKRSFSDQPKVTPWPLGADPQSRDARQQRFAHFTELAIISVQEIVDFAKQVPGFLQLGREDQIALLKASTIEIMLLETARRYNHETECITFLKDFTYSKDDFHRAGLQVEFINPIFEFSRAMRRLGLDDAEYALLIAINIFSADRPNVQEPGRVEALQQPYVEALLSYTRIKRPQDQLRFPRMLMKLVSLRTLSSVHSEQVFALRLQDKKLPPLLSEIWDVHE
Experiment: LanthaScreen TR-FRET Liver X Receptor Coactivator Assay, LXR beta
Type: biochemical
Conditions: read-out: LXR beta actiivty at max dose, efficacy (% Emax) in relation to reference dual agonist T0901317
Provide the recorded Emax for the entries that follow.
Entry rule: numbers only, all in %.

**Query** What value of Emax has been recorded for this entry: CN(C)CCCNC(=O)c1ccc(OCCCCC2CCN(C(=O)[C@](O)(c3ccccc3)C(F)(F)F)CC2)cc1Cl (single isomer, unassigned) [Example 8-19]
**Result** 53

**Query** Ok, now O=C(c1ccc(OCCCCC2CCN(C(=O)C(O)(c3ccccc3)C(F)(F)F)CC2)cc1Cl)N1C[C@@H]2CC[C@H]1C2 (single isomer, unassigned) [Example 8-15]
**Result** 36

**Query** Ok, now CNC(=O)c1ccc(OCC[C@@H]2C[C@@H]2C2CCN(C(=O)[C@](O)(c3cc(F)cc(F)c3)C(F)(F)F)CC2)cc1Cl (single isomer, unassigned) [Example 10-3]
**Result** 116
